A collection of binders and their measured hCD71:HSA
ASSAY_SYSTEM: T1, recombinant biotinylated CD71 extracellular domain (Sino Biologics) with an N-terminal 6His tag (human, UniProt P02786 89-760, biotinylated (site not stated))
T1 construct: extracellular domain; also called hCD71; huCD71 ECD
T1 sequence (P02786 other isoform, or with tags, fused parts or gaps): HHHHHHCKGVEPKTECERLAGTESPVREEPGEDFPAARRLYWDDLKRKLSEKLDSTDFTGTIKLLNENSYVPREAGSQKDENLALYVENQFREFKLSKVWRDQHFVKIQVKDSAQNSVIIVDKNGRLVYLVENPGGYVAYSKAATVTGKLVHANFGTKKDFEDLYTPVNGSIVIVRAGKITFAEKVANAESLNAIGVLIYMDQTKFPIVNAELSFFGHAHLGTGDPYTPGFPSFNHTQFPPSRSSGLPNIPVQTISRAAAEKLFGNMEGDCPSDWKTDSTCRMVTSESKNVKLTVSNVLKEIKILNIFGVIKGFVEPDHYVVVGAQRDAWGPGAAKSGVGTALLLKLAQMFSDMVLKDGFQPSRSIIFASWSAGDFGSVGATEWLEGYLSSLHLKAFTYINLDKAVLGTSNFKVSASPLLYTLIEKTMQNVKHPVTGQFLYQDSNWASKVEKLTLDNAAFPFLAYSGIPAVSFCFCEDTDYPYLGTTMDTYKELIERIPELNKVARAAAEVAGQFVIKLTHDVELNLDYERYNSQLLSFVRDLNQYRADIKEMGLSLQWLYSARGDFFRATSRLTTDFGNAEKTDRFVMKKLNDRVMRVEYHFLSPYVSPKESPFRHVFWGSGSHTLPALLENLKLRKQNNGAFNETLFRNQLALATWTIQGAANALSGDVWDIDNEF
EXPERIMENT_NOTES: primary solution ELISA screen, signal on hCD71 over HSA
Reply: number alone, nothing else.

BINDER	READOUT_NUMBER
SEQ ID NO 36 (designed binder, not shown: small tags and cut ends, FN3 domain, hit of the apical domain panning) MLPAPKNLVVSEVTEDSARLSWQGVARAFDSFLITYREQIFAGEVIVPTVPGSERSYDLTGLKPGTEYPVPIAGVKGGGPSAPLSAIFTT	60
SEQ ID NO 28 (designed binder, not shown: small tags and cut ends, FN3 domain, hit of the apical domain panning) MLPAPKNLVVSEVTEDSARLSWQGVVRAFDSFLITYREQIFAGEVIVLTVPGSERSYDLTGLKPGTEYPVWIQGVKGGSPSAPLSAEFTT	28
SEQ ID NO 59 (designed binder, not shown: small tags and cut ends, FN3 domain, hit of the apical domain panning) MLPAPKNLVVSRVTEDSARLSWTAPDAAFDSFVYNEVHWIGEAIVLTVPGSERSYDLTGLKPGTEYFVGIYGVKGGHWSKPLSAIFTT	68
SEQ ID NO 79 (designed binder, not shown: small tags and cut ends, FN3 domain, hit of the apical domain panning) MLPAPKNLVVSRVTEDSARLSWTAPDAAFDSFVIEYTERFWSGEAIVLTVPGSERSYDLTGLKPGTEYSVPIDGVKGGQCSTPLSAIFTT	46

Attention now turns to another entry.
Please give the measured hCD71:HSA for this binder: SEQ ID NO 43 (designed binder, not shown: small tags and cut ends, FN3 domain, hit of the apical domain panning) MLPAPKNLVVSRVTEDSARLSWTAPDAAFDSFMIVYYEYTRFGEAIVLTVPGSERSYDLTGLKPGTEYTVPIDGVKGGGRSSPLSAIFTT
36
